# systemName: CYP11B2 (Homo sapiens (Human), UniProt P19099)
# Sequence (P19099 25-503): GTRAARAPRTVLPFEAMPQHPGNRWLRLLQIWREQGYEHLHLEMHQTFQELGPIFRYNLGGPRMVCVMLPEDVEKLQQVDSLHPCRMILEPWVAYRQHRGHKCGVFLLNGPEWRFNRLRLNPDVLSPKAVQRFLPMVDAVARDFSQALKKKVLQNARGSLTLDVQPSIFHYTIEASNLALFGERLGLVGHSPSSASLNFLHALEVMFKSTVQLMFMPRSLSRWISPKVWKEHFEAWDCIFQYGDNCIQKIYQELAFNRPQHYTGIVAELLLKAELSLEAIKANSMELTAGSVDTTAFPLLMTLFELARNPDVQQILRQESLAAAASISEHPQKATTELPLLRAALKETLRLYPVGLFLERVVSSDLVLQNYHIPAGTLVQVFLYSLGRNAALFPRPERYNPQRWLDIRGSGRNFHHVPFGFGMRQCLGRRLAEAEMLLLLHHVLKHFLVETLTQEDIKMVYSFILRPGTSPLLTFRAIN
# experimentNotes: G-402 cellular enzyme assay, human CYP11B2 (aldosterone release)
# conditionDescription: G-402 cells expressing human CYP11B2, 1 μM Deoxycorticosterone
Structures can show the parent of a compound that is named as a salt.
reportedEndpoint: EC50 (nM)
Kindly provide the numeric value in nM only, without the unit symbol.

Qu. Value lookup for EC50; key = N#Cc1ccc(-c2cncc3c2CCC3O)cc1 (racemic)
Ans. 1.3

Qu. Try this compound next: CCS(=O)(=O)NC1CCc2c(-c3ccc(C(F)(F)F)cc3)cncc21 (single isomer, unassigned; (+)) [Example 66]
Ans. 280

Qu. Then O=C(O)COC1CCc2c(-c3ccc(C(F)(F)F)cc3)cncc21 (racemic) [Example 99, hydrochloride] ?
Ans. 65.9

Qu. Input CC1(O)CCc2c(-c3ccc(C(F)(F)F)cc3)cncc21 (racemic)
Ans. 4.8

Qu. Record: CCC(=O)NC1CCc2c(-c3ccc(Cl)c(F)c3)cncc21 (single isomer, unassigned; (+)) [Example 57]
Ans. 7

Qu. Try this compound next: CCC(=O)NC1CCc2c(-c3ccc(C(F)(F)F)cc3)cncc21 (single isomer, unassigned; (-)) [Example 50]
Ans. 5770

Qu. Also need CCC(=O)NC1CCc2c(-c3ccc(F)c(C)c3)cncc21 (racemic) [Example 58] , thanks.
Ans. 10

----------
# systemName: human CYP11B1 (Homo sapiens (Human), UniProt P15538)
# Sequence (P15538 25-503): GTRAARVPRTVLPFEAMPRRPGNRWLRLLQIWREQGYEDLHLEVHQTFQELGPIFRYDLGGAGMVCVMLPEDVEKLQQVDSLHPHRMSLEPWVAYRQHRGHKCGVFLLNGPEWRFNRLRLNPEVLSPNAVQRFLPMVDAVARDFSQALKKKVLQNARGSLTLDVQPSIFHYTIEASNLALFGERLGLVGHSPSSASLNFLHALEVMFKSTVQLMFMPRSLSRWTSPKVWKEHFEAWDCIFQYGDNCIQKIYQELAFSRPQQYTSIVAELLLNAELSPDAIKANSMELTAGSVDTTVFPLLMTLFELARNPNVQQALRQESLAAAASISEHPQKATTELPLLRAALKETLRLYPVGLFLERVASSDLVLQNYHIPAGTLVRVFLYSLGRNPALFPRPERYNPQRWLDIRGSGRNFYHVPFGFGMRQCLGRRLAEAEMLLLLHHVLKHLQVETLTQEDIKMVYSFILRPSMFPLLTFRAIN
# experimentNotes: G-402 cellular enzyme assay, human CYP11B1 (cortisol release)
# conditionDescription: G-402 cells expressing human CYP11B1, 1 μM Deoxycortisol
Where a name gives a salt, the structure may show the parent alone.
reportedEndpoint: pEC50
Note: pEC50 values are expressed as the negative base-10 logarithm of concentration in M.

Qu. Look up pEC50: CC(=O)N[C@@H]1CCCc2c(-c3ccc(C(F)(F)F)cc3F)cncc21 [Example 75]
Ans. 5.45

Qu. Repeat for the following molecule: CCC(=O)NC1CCCc2c(-c3ccc(C(F)(F)F)c(F)c3)cncc21 (single isomer, unassigned; (+)) [Example 41]
Ans. 5.74

Qu. Then CS(=O)(=O)N[C@@H]1CCCc2c(-c3ccc(C(F)(F)F)cc3F)cncc21 [Example 76] ?
Ans. 4.63

Qu. Again, but for Cc1ccc(C2(O)CCCc3c(-c4ccc(C#N)cc4)cncc32)cc1C (single isomer, unassigned; (-)) [Example 16]
Ans. 6.31

Qu. Now consider Cc1ccc(C2(O)CCCc3c(-c4ccc(C#N)cc4)cncc32)cc1C (single isomer, unassigned; (+)) [Example 15] .
Ans. 7.68

Qu. Please answer likewise for O=C(O)COC1CCc2c(-c3ccc(C(F)(F)F)cc3)cncc21 (racemic) [Example 99, hydrochloride]
Ans. 5.92

Qu. Lookup CC(=O)NC1CCCc2c(-c3ccc(C#N)cc3)cncc21 (racemic) [Example 8]
Ans. 6.37

Qu. Follow-up entry: CCNC(=O)OC1CCCc2c(-c3ccc(C#N)cc3)cncc21 (racemic) [Example 12]
Ans. 7.52

Qu. What do you have for CC(C)(C)OC(=O)COC1CCc2c(-c3ccc(C(F)(F)F)cc3)cncc21 (racemic) [Example 97] ?
Ans. 7.14

Qu. Similarly, CCC(=O)NC1CCCc2c(-c3ccc(F)cc3F)cncc21 (racemic) [Example 42] ?
Ans. 5.62

Qu. Follow-up item: CCC(=O)NC1CCc2c(-c3ccc(C(F)(F)F)cc3F)cncc21 (single isomer, unassigned; (-)) [Example 62]
Ans. 4.83

Qu. Now the molecule NC1CCc2c(-c3ccc(C(F)(F)F)cc3)cncc21 (racemic) [Example 93]
Ans. 6.44

Qu. And then CCC(=O)NC1CCCc2c(-c3ccc(Cl)cc3)cncc21 (racemic) [Example 24] , what is it?
Ans. 5.85

Qu. Follow-up entry: C[C@@H](O)C(=O)NC1CCc2c(-c3ccc(C(F)(F)F)cc3)cncc21 (single isomer, unassigned; (+)) [Example 54]
Ans. 5.50

Qu. Same read-out for CCC(=O)NC1CCCc2c(-c3ccc(C(F)(F)F)cc3)cncc21 (racemic) [Example 21] ?
Ans. 5.15

Qu. Follow-up entry: N[C@@H]1CCCc2c(-c3ccc(C(F)(F)F)cc3F)cncc21 [Example 74]
Ans. 5.91

Qu. Can you check CCC(=O)NC1CCCc2c(-c3ccc(C(F)(F)F)c(F)c3)cncc21 (single isomer, unassigned; (-)) [Example 40] next?
Ans. 4.49

Qu. Moving on to the next molecule: CCC(=O)NC1CCCc2c(-c3ccc(C(F)(F)F)c(F)c3)cncc21 (racemic) [Example 39]
Ans. 5.49

Qu. Lookup CCC(=O)NC1CCCc2c(-c3ccc(F)c(Cl)c3)cncc21 (racemic) [Example 20]
Ans. 6.32

Qu. # repeat for OC1CCCc2c(-c3ccc(C(F)(F)F)cc3)cncc21 (single isomer, unassigned; (-)) [Example 105]
Ans. 5.78

Qu. Same for CCC(=O)NC1CCCc2c(-c3ccc(C#N)cc3)cncc21 (single isomer, unassigned; (-)) [Example 6]
Ans. 4.93

Qu. Same read-out for CC(=O)N[C@@H]1CCCc2c(-c3ccc(C(F)(F)F)c(F)c3)cncc21 [Example 79] ?
Ans. 5.75

Qu. Can you check CCC(=O)NC1CCc2c(-c3ccc(C(F)(F)F)cc3)cncc21 (racemic) [Example 49] next?
Ans. 5.39

Qu. And then OC1CCc2c(-c3ccc(C(F)(F)F)cc3)cncc21 (racemic) [Example 83] , what is it?
Ans. 6.13

Qu. Same read-out for CCS(=O)(=O)NC1CCc2c(-c3ccc(C(F)(F)F)cc3)cncc21 (racemic) [Example 64] ?
Ans. 4.90
